Values from paper PMC12591191

# system: SIRT6 R65A (human, UniProt Q8N6T7 1-355, R65A)
# Sequence (Q8N6T7 whole entry R65A): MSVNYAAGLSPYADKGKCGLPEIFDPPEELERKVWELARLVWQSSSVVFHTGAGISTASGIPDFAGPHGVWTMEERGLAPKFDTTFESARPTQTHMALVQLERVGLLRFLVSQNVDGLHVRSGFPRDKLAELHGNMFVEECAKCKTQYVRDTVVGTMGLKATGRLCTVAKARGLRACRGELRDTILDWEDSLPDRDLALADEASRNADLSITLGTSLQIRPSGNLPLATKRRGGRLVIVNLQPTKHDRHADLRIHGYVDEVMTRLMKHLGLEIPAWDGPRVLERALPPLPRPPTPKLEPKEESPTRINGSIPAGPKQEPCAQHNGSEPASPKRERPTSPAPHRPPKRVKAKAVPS
# testName: BLI; Mg2+
Where no end group is shown, it is not given here. The star is where a group is joined. Biotin = O=C1N[C@H]2[C@H](CS[C@H]2CCCCC(=O)*)N1; Myristoyl = CCCCCCCCCCCCCC(=O)*
endpoint: Kd (nM)

> print(dat)
                                     binder  observedresult
1  Biotin-KQTARK(Myristoyl)STGGKARRRRR [B-H3K9^Myr-5R (biotin-KQTARK^MyrSTGGKARRRRR)]            1800
